- Test system: Methicillin-resistant S. epidermidis ET-024
- Assay type: cell-based, Staphylococcus epidermidis
- Measurement parameters: Methicillin-resistant ET-024, 18 h
Non-standard residues stand in square brackets, D forms with d. Residues, ends and D or L forms follow the SMILES beside them. Gly(Nα-4-Cl-benzyl) = O=C(O)CNCc1ccc(Cl)cc1; N(4-Br-benzyl)Gly = O=C(O)CNCc1ccc(Br)cc1; N(4-F-Bzl)Gly = O=C(O)CNCc1ccc(F)cc1; NBzl(4-I)Gly = O=C(O)CNCc1ccc(I)cc1; Nphe = O=C(O)CNCc1ccccc1; Nlys = NCCCCNCC(=O)O
Output t for Minimal inhibitory concentration MRSE^d not less than 20 µg/mL; output f otherwise.

Compound: NCCCCNCC(=O)N(CC(=O)N(CCCCN)CC(=O)N(CC(=O)N(CCCCN)CC(=O)N(CC(=O)N(CCCCN)CC(=O)N(CC(=O)N(CCCCN)CC(=O)N(CC(=O)N(CCCCN)CC(=O)N(CC(N)=O)Cc1ccc(F)cc1)Cc1ccccc1)Cc1ccc(F)cc1)Cc1ccccc1)Cc1ccc(F)cc1)Cc1ccccc1 [Compound 33] (H-[Nlys][Nphe][Nlys][N(4-F-Bzl)Gly][Nlys][Nphe][Nlys][N(4-F-Bzl)Gly][Nlys][Nphe][Nlys][N(4-F-Bzl)Gly]-NH2)
Assigned category: f

Compound: NCCCCNCC(=O)N(CC(=O)N(CCCCN)CC(=O)N(CC(=O)N(CCCCN)CC(=O)N(CC(=O)N(CCCCN)CC(=O)N(CC(=O)N(CCCCN)CC(=O)N(CC(=O)N(CCCCN)CC(=O)N(CC(N)=O)Cc1ccc(I)cc1)Cc1ccc(I)cc1)Cc1ccc(I)cc1)Cc1ccc(I)cc1)Cc1ccc(I)cc1)Cc1ccc(I)cc1 [Compound 32] (H-[Nlys][NBzl(4-I)Gly][Nlys][NBzl(4-I)Gly][Nlys][NBzl(4-I)Gly][Nlys][NBzl(4-I)Gly][Nlys][NBzl(4-I)Gly][Nlys][NBzl(4-I)Gly]-NH2)
Assigned category: t

Compound: NCCCCNCC(=O)N(CC(=O)N(CCCCN)CC(=O)N(CC(=O)N(CCCCN)CC(=O)N(CC(N)=O)Cc1ccc(I)cc1)Cc1ccccc1)Cc1ccc(I)cc1 [Compound 9] (H-[Nlys][NBzl(4-I)Gly][Nlys][Nphe][Nlys][NBzl(4-I)Gly]-NH2)
Assigned category: f

Compound: NCCCCNCC(=O)N(CC(=O)N(CCCCN)CC(=O)N(CC(=O)N(CCCCN)CC(=O)N(CC(N)=O)Cc1ccc(Br)cc1)Cc1ccccc1)Cc1ccc(Br)cc1 [Compound 8] (H-[Nlys][N(4-Br-benzyl)Gly][Nlys][Nphe][Nlys][N(4-Br-benzyl)Gly]-NH2)
Assigned category: t

Compound: NCCCCNCC(=O)N(CC(=O)N(CCCCN)CC(=O)N(CC(=O)N(CCCCN)CC(=O)N(CC(=O)N(CCCCN)CC(=O)N(CC(N)=O)Cc1ccc(Br)cc1)Cc1ccc(Br)cc1)Cc1ccc(Br)cc1)Cc1ccc(Br)cc1 [Compound 13] (H-[Nlys][N(4-Br-benzyl)Gly][Nlys][N(4-Br-benzyl)Gly][Nlys][N(4-Br-benzyl)Gly][Nlys][N(4-Br-benzyl)Gly]-NH2)
Assigned category: f

Compound: NCCCCNCC(=O)N(CC(=O)N(CCCCN)CC(=O)N(CC(=O)N(CCCCN)CC(=O)N(CC(=O)N(CCCCN)CC(=O)N(CC(N)=O)Cc1ccc(Cl)cc1)Cc1ccc(Cl)cc1)Cc1ccc(Cl)cc1)Cc1ccc(Cl)cc1 [Compound 12] (H-[Nlys][Gly(Nα-4-Cl-benzyl)][Nlys][Gly(Nα-4-Cl-benzyl)][Nlys][Gly(Nα-4-Cl-benzyl)][Nlys][Gly(Nα-4-Cl-benzyl)]-NH2)
Assigned category: f

Compound: NCCCCNCC(=O)N(CC(=O)N(CCCCN)CC(=O)N(CC(=O)N(CCCCN)CC(=O)N(CC(=O)N(CCCCN)CC(=O)N(CC(=O)N(CCCCN)CC(=O)N(CC(N)=O)Cc1ccc(I)cc1)Cc1ccccc1)Cc1ccc(I)cc1)Cc1ccccc1)Cc1ccc(I)cc1 [Compound 27] (H-[Nlys][NBzl(4-I)Gly][Nlys][Nphe][Nlys][NBzl(4-I)Gly][Nlys][Nphe][Nlys][NBzl(4-I)Gly]-NH2)
Assigned category: f

Compound: NCCCCNCC(=O)N(CC(=O)N(CCCCN)CC(=O)N(CC(=O)N(CCCCN)CC(=O)N(CC(=O)N(CCCCN)CC(=O)N(CC(=O)N(CCCCN)CC(=O)N(CC(=O)N(CCCCN)CC(=O)N(CC(N)=O)Cc1ccc(Cl)cc1)Cc1ccc(Cl)cc1)Cc1ccc(Cl)cc1)Cc1ccc(Cl)cc1)Cc1ccc(Cl)cc1)Cc1ccc(Cl)cc1 [Compound 30] (H-[Nlys][Gly(Nα-4-Cl-benzyl)][Nlys][Gly(Nα-4-Cl-benzyl)][Nlys][Gly(Nα-4-Cl-benzyl)][Nlys][Gly(Nα-4-Cl-benzyl)][Nlys][Gly(Nα-4-Cl-benzyl)][Nlys][Gly(Nα-4-Cl-benzyl)]-NH2)
Assigned category: f

Compound: NCCCCNCC(=O)N(CC(=O)N(CCCCN)CC(=O)N(CC(=O)N(CCCCN)CC(=O)N(CC(=O)N(CCCCN)CC(=O)N(CC(=O)N(CCCCN)CC(=O)N(CC(N)=O)Cc1ccccc1)Cc1ccccc1)Cc1ccccc1)Cc1ccccc1)Cc1ccccc1 [Compound 19] (H-[Nlys][Nphe][Nlys][Nphe][Nlys][Nphe][Nlys][Nphe][Nlys][Nphe]-NH2)
Assigned category: t

Compound: NCCCCNCC(=O)N(CC(=O)N(CCCCN)CC(=O)N(CC(=O)N(CCCCN)CC(=O)N(CC(=O)N(CCCCN)CC(=O)N(CC(=O)N(CCCCN)CC(=O)N(CC(=O)N(CCCCN)CC(=O)N(CC(N)=O)Cc1ccc(Br)cc1)Cc1ccccc1)Cc1ccc(Br)cc1)Cc1ccccc1)Cc1ccc(Br)cc1)Cc1ccccc1 [Compound 35] (H-[Nlys][Nphe][Nlys][N(4-Br-benzyl)Gly][Nlys][Nphe][Nlys][N(4-Br-benzyl)Gly][Nlys][Nphe][Nlys][N(4-Br-benzyl)Gly]-NH2)
Assigned category: f
